These entries and their values trace back to patent US20110135636A1.

target: T1, recombinant human EGFR extracellular domain with 6xHis (human, UniProt P00533 25-645); test: SPR competition, competitor 1277
T1 construct: In-house produced; also called 6xHis EGFR ECD; soluble human EGFR ECD; not shown: 6xHis tag
Here, each record is paired with measured % inhibition data.
Please respond with the number in % and leave the unit unwritten.

// solved cases for % inhibition follow
q: Looking for the measured % inhibition of antibody 1254 (antibody, human IgG1, kappa, V domains shown, Chimeric IgG1 kappa; also called mAb 1254) VH: EVQLVESGGGLVKPGGSLKLSCAASGFAYSTYDMSWVRQTPEKRLEWVAYISSGGDAAYYPDTVKGRFTISRDNAKNTLYLQMSSLKSEDTAMYYCARSRYGNYGDAMDYWGQGTSVTVSS VL: DVVMTQTPLSLPVSLGDQASISCRSSQSLVHSNGNTYLHWYLQKPGQSPKLLLYKVSNRFSGVPDRFSGSGSGTDFTLKISRVESEDLGVYFCSQNTHVYTFGGGTKLEIKR , can you help?
a: 99

q: Looking for the measured % inhibition of antibody 1284 (antibody, human IgG1, kappa, V domains shown, Chimeric IgG1 kappa) VH: QVQLQQPGAELVKPGASVKLSCKASGYTFTSDWMHWMKQRPGQGLEWIGEINPSNGRSSYNEKFKSKATLTVDKSSSTAYMQLSSLTSEDSAVYYCARIGGIYVETYWGQGTLVTVSS VL: DIVLTQSPASLAVSLGQRATISCRASQSVSTSTYSYMHWYQQKSGQPPKLLIKYASNLESGVPARFSGSGSGTDFTLNIHPVEEEDTATYYCQHSWEIPWTFGGGTKLEIKR , can you help?
a: -3

q: Looking for the measured % inhibition of antibody 1024 (antibody, human IgG1, kappa, V domains shown, Chimeric IgG1 kappa) VH: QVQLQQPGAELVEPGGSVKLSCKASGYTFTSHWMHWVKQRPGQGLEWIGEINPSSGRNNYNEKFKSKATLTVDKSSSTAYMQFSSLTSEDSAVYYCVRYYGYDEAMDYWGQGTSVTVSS VL: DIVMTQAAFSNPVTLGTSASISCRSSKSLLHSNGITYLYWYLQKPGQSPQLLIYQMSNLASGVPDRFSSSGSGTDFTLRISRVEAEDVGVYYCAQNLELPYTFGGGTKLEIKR , can you help?
a: -1

***
q: Looking for the measured % inhibition of antibody 1320 (antibody, human IgG1, kappa, V domains shown, Chimeric IgG1 kappa) VH: QVQLQQPGAELVKPGASMKLSCKASGYTFTNYWMHWVKQRPGQGLEWIGEINPSNGRTNYNEKFKSKATLTVDKSSSTAYMQLSSLTSEDSGVYYCAKGGNYYDYDWDYWGQGTTLTVSS VL: DIQMTQTTSSLSASLGDRVTISCSASQDISNYLNWYQQKPDGTVKLLIYHTSTLHSGVPSRFSGSGSGTDYSLTISNLEPEDIATYYCQQYSKLPWTFGGGTKLEIKR , can you help?
a: 0
